Data provenance: PubChem BioAssay AID256

- System: CD2F1 mice, L1210 leukemia ip, survival T/C
- Measurement description: NCI In Vivo Anticancer Drug Screen. Data for tumor model L1210 Leukemia (intraperitoneal) in CD2F1 (CDF1) mice
- Condition details: endpoint: mean survival time; dose: 25.0 mg/kg/injection; schedule: Q01DX009 (ip); vehicle: water; higher = longer survival
Inconclusive results and toxic doses are left out.
Examples of compounds with documented T/C follow.
Readout label: T/C

COc1ccc(OC)c(CC(C(C)=O)C(C)=O)c1 :: 96 % of control
CCOC(=O)C(C(=O)COC)C(=O)OCC :: 102 % of control
CCCCN=[N+]=[N-] :: 94 % of control
CN(C)c1ccc(/C=C/c2nc(N)nc(N)c2[N+](=O)[O-])cc1 :: 98 % of control
Nc1nc(N)c(NC=O)c(N)n1 :: 101 % of control
NC(=O)CCC(N)C(=O)O.[Cl-].[Cl-].[Cl-].[Cl-].[Pt+2] (centres undefined) :: 100 % of control
CC(C)CCCC(C)C1CCC2C3CC=C4CC(O)CCC4(C)C3CCC12C (centres undefined) (tested in a mixture with another compound) :: 100 % of control
CN(C)C1CC2C=CC1C1C=CC21 (centres undefined) :: 101 % of control
N#C[C@H](OC1OC(COC2OC(CO)C(O)C(O)C2O)C(O)C(O)C1O)c1ccccc1 (some centres undefined) :: 96 % of control

----------
- Tested on: CD2F1 mice, L1210 leukemia ip, survival T/C
- Measurement description: NCI In Vivo Anticancer Drug Screen. Data for tumor model L1210 Leukemia (intraperitoneal) in CD2F1 (CDF1) mice
- Condition details: endpoint: mean survival time; dose: 25.0 mg/kg/injection; schedule: Q01DX009 (ip); vehicle: saline; higher = longer survival
Toxic doses and inconclusive results are not listed. Residues, ends and D or L forms follow the SMILES beside them. *: point of attachment. Trt = c1ccc(C(c2ccccc2)(c2ccccc2)*)cc1
Measured T/C, listed per entry.
Readout label: T/C

COC(/C=C\C(OC)OC)OC :: 96 % of control
CC1(C)CC(NC2=NCCO2)CC(C)(C)N1 :: 96 % of control
CC(=O)NC(CSC(c1ccccc1)(c1ccccc1)c1ccccc1)C(=O)O (configuration not stated) :: 101 % of control
O=C(NO)c1ccccc1 :: 96 % of control
CCCCCCCCP(=O)(N1CC1C)N1CC1C (configuration not stated) :: 96 % of control
CC(=O)NCCCCCCNC(C)=O :: 96 % of control
O=C(SCc1ccccc1)c1cccnc1 :: 98 % of control
NC(CSC(c1ccccc1)(c1ccccc1)c1cccc2ccccc12)C(=O)O (configuration not stated) :: 100 % of control
C=CCCCCCCCCC(=O)NCC[N+](C)(C)C :: 106 % of control
COC(=O)C(CC(C)C)NC(=O)C(N)CSC(c1ccccc1)(c1ccccc1)c1ccccc1 (configuration not stated) (H-Cys(Trt)-Leu-OMe; configuration not given here) :: 104 % of control
COC(=O)c1c2ccccc2[n+](C)c2ccccc12 :: 95 % of control
c1ccc2c(CC[n+]3cccc(C4OCCO4)c3)c[nH]c2c1 :: 105 % of control

----------
The entries below are paired with their reported T/C.
- Test system: CD2F1 mice, L1210 leukemia ip, survival T/C
- Measurement description: NCI In Vivo Anticancer Drug Screen. Data for tumor model L1210 Leukemia (intraperitoneal) in CD2F1 (CDF1) mice
- Condition details: endpoint: mean survival time; dose: 200.0 mg/kg/injection; schedule: Q04DX003 (ip); vehicle: saline with Tween-80; higher = longer survival
Toxic doses and inconclusive results are not listed.
Readout label: T/C

c1ccc(-c2ccccc2N=C2N=NN=N2)cc1 :: 93 % of control
C=CC1(O)CC2CCC1C2 (configuration not stated) :: 93 % of control
COc1cc(C(=O)N2CC3CCC(CC3)C2)cc(OC)c1OC :: 96 % of control
Cc1ccc(S(=O)(=O)/N=S(\C)c2ccc(Cl)cc2)cc1 (configuration not stated) :: 108 % of control
CN1CN(C)C(=O)S(=O)(=O)C1 :: 93 % of control
CC(C)(C)N=C1OC(=O)c2ccccc21 :: 101 % of control
CN(C)S(=O)(=O)CC(O)(c1ccccc1)c1ccccc1 :: 103 % of control
